Tested on: tet operator sequence
PROCEDURE DETAILS: β-galactosidase activity of a tetracycline-regulated promoter in transformed E. coli with revTetR, in the presence and absence of anhydrotetracycline (atc)
Type: cell-based, Escherichia coli
TEST SETTINGS: RevTetR isolate cultured in the presence of anhydrotetracycline (ATC)
EXPERIMENTAL READOUT: β-Galactosidase Activity, Cultured With ATC

molecule="TetRrev96/99-7: revTetR(BD) G96L V99K (protein, Modified tetracycline repressor, revTetR(BD) G96L V99K) MSRLDKSKVINSALELLNEVGIEGLTTRKLAQKLGVEQPTLYWHVKNKRALLDALAVEILARHHDYSLPAAGESWQSFLRNNAMSFRRALLRYRDLAKKHLGTRPDEKQYDTVETQLRFMTENGFSLRDGLYAISAVSHFTLGAVLEQQEHTAALTDRPAAPDENLPPLLREALQIMDSDDGEQAFLHGLESLIRGFEVQLTALLQIV" numeric_result=13.224
molecule="TetRrevAD2/4: revTetR(BD) L17F N18R D53N I59M A61T (protein, Modified tetracycline repressor, revTetR(BD) L17F N18R D53N I59M A61T) MSRLDKSKVINSALELFREVGIEGLTTRKLAQKLGVEQPTLYWHVKNKRALLNALAVEMLTRHHDYSLPAAGESWQSFLRNNAMSFRRALLRYRDGAKVHLGTRPDEKQYDTVETQLRFMTENGFSLRDGLYAISAVSHFTLGAVLEQQEHTAALTDRPAAPDENLPPLLREALQIMDSDDGEQAFLHGLESLIRGFEVQLTALLQIV" numeric_result=1.0068
molecule="TetRrev96/99-16: revTetR(BD) G96P V99Y (protein, Modified tetracycline repressor, revTetR(BD) G96P V99Y) MSRLDKSKVINSALELLNEVGIEGLTTRKLAQKLGVEQPTLYWHVKNKRALLDALAVEILARHHDYSLPAAGESWQSFLRNNAMSFRRALLRYRDPAKYHLGTRPDEKQYDTVETQLRFMTENGFSLRDGLYAISAVSHFTLGAVLEQQEHTAALTDRPAAPDENLPPLLREALQIMDSDDGEQAFLHGLESLIRGFEVQLTALLQIV" numeric_result=9.8301
molecule="TetRrevAtc4-43: revTetR(BD) L52V A56V V57L I59T A61S (protein, Modified tetracycline repressor, revTetR(BD) L52V A56V V57L I59T A61S) MSRLDKSKVINSALELLNEVGIEGLTTRKLAQKLGVEQPTLYWHVKNKRALVDALVLETLSRHHDYSLPAAGESWQSFLRNNAMSFRRALLRYRDGAKVHLGTRPDEKQYDTVETQLRFMTENGFSLRDGLYAISAVSHFTLGAVLEQQEHTAALTDRPAAPDENLPPLLREALQIMDSDDGEQAFLHGLESLIRGFEVQLTALLQIV" numeric_result=13.878
molecule="TetRrevAD1/2: revTetR(BD) N18Y L52L D53Y A54A I59T (protein, Modified tetracycline repressor, revTetR(BD) N18Y L52L D53Y A54A I59T) MSRLDKSKVINSALELLYEVGIEGLTTRKLAQKLGVEQPTLYWHVKNKRALLYALAVETLARHHDYSLPAAGESWQSFLRNNAMSFRRALLRYRDGAKVHLGTRPDEKQYDTVETQLRFMTENGFSLRDGLYAISAVSHFTLGAVLEQQEHTAALTDRPAAPDENLPPLLREALQIMDSDDGEQAFLHGLESLIRGFEVQLTALLQIV" numeric_result=1.6137
molecule="TetRrevAtc4-2: revTetR(BD) R49G L55L V57V E58N R62L H63Q (protein, Modified tetracycline repressor, revTetR(BD) R49G L55L V57V E58N R62L H63Q) MSRLDKSKVINSALELLNEVGIEGLTTRKLAQKLGVEQPTLYWHVKNKGALLDALAVNILALQHDYSLPAAGESWQSFLRNNAMSFRRALLRYRDGAKVHLGTRPDEKQYDTVETQLRFMTENGFSLRDGLYAISAVSHFTLGAVLEQQEHTAALTDRPAAPDENLPPLLREALQIMDSDDGEQAFLHGLESLIRGFEVQLTALLQIV" numeric_result=0.9516
molecule="TetRrev6-17: revTetR(BD) R94G G96W (protein, Modified tetracycline repressor, revTetR(BD) R94G G96W) MSRLDKSKVINSALELLNEVGIEGLTTRKLAQKLGVEQPTLYWHVKNKRALLDALAVEILARHHDYSLPAAGESWQSFLRNNAMSFRRALLRYGDWAKVHLGTRPDEKQYDTVETQLRFMTENGFSLRDGLYAISAVSHFTLGAVLEQQEHTAALTDRPAAPDENLPPLLREALQIMDSDDGEQAFLHGLESLIRGFEVQLTALLQIV" numeric_result=12.5
molecule="TetRrevAtc4-24: revTetR(BD) A56P V57A E58Q H63Q (protein, Modified tetracycline repressor, revTetR(BD) A56P V57A E58Q H63Q) MSRLDKSKVINSALELLNEVGIEGLTTRKLAQKLGVEQPTLYWHVKNKRALLDALPAQILARQHDYSLPAAGESWQSFLRNNAMSFRRALLRYRDGAKVHLGTRPDEKQYDTVETQLRFMTENGFSLRDGLYAISAVSHFTLGAVLEQQEHTAALTDRPAAPDENLPPLLREALQIMDSDDGEQAFLHGLESLIRGFEVQLTALLQIV" numeric_result=13.63
molecule="TetRrev96/99-3: revTetR(BD) G96E V99T (protein, Modified tetracycline repressor, revTetR(BD) G96E V99T) MSRLDKSKVINSALELLNEVGIEGLTTRKLAQKLGVEQPTLYWHVKNKRALLDALAVEILARHHDYSLPAAGESWQSFLRNNAMSFRRALLRYRDEAKTHLGTRPDEKQYDTVETQLRFMTENGFSLRDGLYAISAVSHFTLGAVLEQQEHTAALTDRPAAPDENLPPLLREALQIMDSDDGEQAFLHGLESLIRGFEVQLTALLQIV" numeric_result=31.808
